- Tested on: LOVO xenografts
- experiment-summary: LOVO xenografts in nude mice
- Assay type: in vivo
- condition-info: LOVO xenograft nude mice, 1 mg/kg
metric: Tumor weight (g)

compound="CCC1=CC2CN(C1)Cc1c([nH]c3ccccc13)C(C(=O)OC)(c1cc3c(cc1OC)N(C)C1C(O)(C(=O)NNC(=O)C4CCCN4C(=O)CNC(=O)OCc4ccccc4)C(O)C4(CC)C=CCN5CCC31C54)C2 (centres unmarked) [BX-CCRB, Z-GP-NHNH-Vinorelbine]" recorded_measurement=0.57
compound="CC[C@]1(O)C[C@@H]2CN(CCc3c([nH]c4ccccc34)[C@@](C(=O)OC)(c3cc4c(cc3OC)N[C@H]3[C@@](O)(C(=O)NN)[C@H](O)[C@]5(CC)C=CCN6CC[C@]43[C@@H]65)C2)C1 [JJ-CCXJ, hydrazinolyzed vincristine]" recorded_measurement=0.76

###

- System: HL-60 xenografts
- experiment-summary: HL-60 xenografts in nude mice
- Type: in vivo
- condition-info: HL-60 xenograft nude mice, 1 mg/kg
metric: Tumor weight (g)

compound="CCC1=C[C@@H]2CN(C1)Cc1c([nH]c3ccccc13)[C@@](C(=O)OC)(c1cc3c(cc1OC)N(C)[C@H]1[C@@](O)(C(=O)NN)[C@H](O)[C@]4(CC)C=CCN5CC[C@]31[C@@H]54)C2 [JJ-CCRB, hydrazinolyzed vinorelbine]" metric="Tumor weight" recorded_measurement=0.72
compound="CC[C@]12C=CCN3CC[C@@]4(c5cc([C@@]6(C(=O)OC)C[C@@H]7C[C@@H](C(C)(F)F)CN(Cc8c6[nH]c6ccccc86)C7)c(OC)cc5N(C)[C@H]4[C@@](O)(C(=O)NN)[C@@H]1O)[C@@H]32 [JJ-CCFN, hydrazinolyzed vinflunine]" metric="Tumor weight" recorded_measurement=0.83

###

- System: HL-60 xenografts
- experiment-summary: HL-60 xenografts in nude mice
- Format: in vivo
- condition-info: HL-60 xenograft nude mice, 1 mg/kg
This section presents compounds with their documented Body weight (g) Post-dose values.
metric: Body weight (g) Post-dose

compound="CCC1(O)CC2CN(CCc3c([nH]c4ccccc34)C(C(=O)OC)(c3cc4c(cc3OC)N(C=O)C3C(O)(C(=O)NNC(=O)C5CCCN5C(=O)CNC(=O)OCc5ccccc5)C(O)C5(CC)C=CCN6CCC43C65)C2)C1 (centres unmarked)" tgt="HL-60 xenografts" unit_abbreviation=g recorded_measurement=19.7
compound="CCC1=C[C@@H]2CN(C1)Cc1c([nH]c3ccccc13)[C@@](C(=O)OC)(c1cc3c(cc1OC)N(C)[C@H]1[C@@](O)(C(=O)NN)[C@H](O)[C@]4(CC)C=CCN5CC[C@]31[C@@H]54)C2 [JJ-CCRB, hydrazinolyzed vinorelbine]" tgt="HL-60 xenografts" unit_abbreviation=g recorded_measurement=17.1
compound="CC[C@]12C=CCN3CC[C@@]4(c5cc([C@@]6(C(=O)OC)C[C@@H]7C[C@@H](C(C)(F)F)CN(Cc8c6[nH]c6ccccc86)C7)c(OC)cc5N(C)[C@H]4[C@@](O)(C(=O)NN)[C@@H]1O)[C@@H]32 [JJ-CCFN, hydrazinolyzed vinflunine]" tgt="HL-60 xenografts" unit_abbreviation=g recorded_measurement=17.3
compound="CCC1(O)CC2CN(CCc3c([nH]c4ccccc34)C(C(=O)OC)(c3cc4c(cc3OC)N(C)C3C(O)(C(=O)NNC(=O)C5CCCN5C(=O)CNC(=O)OCc5ccccc5)C(O)C5(CC)C=CCN6CCC43C65)C2)C1 (centres unmarked)" tgt="HL-60 xenografts" unit_abbreviation=g recorded_measurement=20.1
compound="CC[C@]1(O)C[C@@H]2CN(CCc3c([nH]c4ccccc34)[C@@](C(=O)OC)(c3cc4c(cc3OC)N(C)[C@H]3[C@@](O)(C(=O)OC)[C@H](OC(C)=O)[C@]5(CC)C=CCN6CC[C@]43[C@@H]65)C2)C1 [Vinblastine, reference compound]" tgt="HL-60 xenografts" unit_abbreviation=g recorded_measurement=16.2

###

- Test system: human breast cancer cell line MCF-7
- experiment-summary: MTT cell growth inhibition, MCF-7
- Assay type: cell-based
- condition-info: MCF-7, MTT assay, 72 h; read-out: IC50, growth of tumor cell line
pIC50: −log10 of the molar value.
Reported pIC50 by item:
metric: pIC50

compound="CCC1(O)CC2CN(CCc3c([nH]c4ccccc34)C(C(=O)OC)(c3cc4c(cc3OC)N(C)C3C(O)(C(=O)NNC(=O)C5CCCN5C(=O)CNC(=O)OCc5ccccc5)C(O)C5(CC)C=CCN6CCC43C65)C2)C1 (stereo not shown) [BX-CCJ, Z-GP-NHNH-Vinblastine]" tgt="human breast cancer cell line MCF-7" recorded_measurement=6.97
compound="CCC1=CC2CN(C1)Cc1c([nH]c3ccccc13)C(C(=O)OC)(c1cc3c(cc1OC)N(C)C1C(O)(C(=O)NNC(=O)C4CCCN4C(=O)CNC(=O)OCc4ccccc4)C(O)C4(CC)C=CCN5CCC31C54)C2 (stereo not shown) [BX-CCRB, Z-GP-NHNH-Vinorelbine]" tgt="human breast cancer cell line MCF-7" recorded_measurement=6.62
compound="CCC12C=CCN3CCC4(c5cc(C6(C(=O)OC)CC7CC(C(C)(F)F)CN(Cc8c6[nH]c6ccccc86)C7)c(OC)cc5N(C)C4C(O)(C(=O)NNC(=O)C4CCCN4C(=O)CNC(=O)OCc4ccccc4)C1O)C32 (stereo not shown) [BX-CCFN, Z-GP-NHNH-Vinflunine]" tgt="human breast cancer cell line MCF-7" recorded_measurement=6.22
compound="CCC1(O)CC2CN(CCc3c([nH]c4ccccc34)C(C(=O)OC)(c3cc4c(cc3OC)N(C=O)C3C(O)(C(=O)NNC(=O)C5CCCN5C(=O)CNC(=O)OCc5ccccc5)C(O)C5(CC)C=CCN6CCC43C65)C2)C1 (stereo not shown) [BX-CCXJ, Z-GP-NHNH-Vincristine]" tgt="human breast cancer cell line MCF-7" recorded_measurement=7.14

###

- experiment-summary: MTT cytotoxicity on normal cells, LO2
- condition-info: human, LO2 cells (human normal liver cells)
metric: IC50 at 72 h

molecule="CCC1=C[C@@H]2CN(C1)Cc1c([nH]c3ccccc13)[C@@](C(=O)OC)(c1cc3c(cc1OC)N(C)[C@H]1[C@@](O)(C(=O)OC)[C@H](OC(C)=O)[C@]4(CC)C=CCN5CC[C@]31[C@@H]54)C2 [Vinorelbine, reference compound]" recorded_measurement="0.97 nM"
molecule="CC[C@]1(O)C[C@@H]2CN(CCc3c([nH]c4ccccc34)[C@@](C(=O)OC)(c3cc4c(cc3OC)N(C)[C@H]3[C@@](O)(C(=O)NN)[C@H](O)[C@]5(CC)C=CCN6CC[C@]43[C@@H]65)C2)C1 [JJ-CCJ, hydrazinolyzed vinblastine]" recorded_measurement="20.1 nM"
molecule="CC[C@]1(O)C[C@@H]2CN(CCc3c([nH]c4ccccc34)[C@@](C(=O)OC)(c3cc4c(cc3OC)N(C)[C@H]3[C@@](O)(C(=O)OC)[C@H](OC(C)=O)[C@]5(CC)C=CCN6CC[C@]43[C@@H]65)C2)C1 [Vinblastine, reference compound]" recorded_measurement="0.34 nM"
molecule="CC[C@]1(O)C[C@H]2CN(CCc3c([nH]c4ccccc34)[C@@](C(=O)OC)(c3cc4c(cc3OC)N(C=O)[C@H]3[C@@](O)(C(=O)OC)[C@H](OC(C)=O)[C@]5(CC)C=CCN6CC[C@]43[C@@H]65)C2)C1 [Vincristine, reference compound]" recorded_measurement="0.21 nM"

###

- System: LOVO xenografts
- experiment-summary: LOVO xenografts in nude mice
- Format: in vivo
- condition-info: LOVO xenograft nude mice, 1 mg/kg
metric: Body weight (g) Post-dose

molecule="CCC1(O)CC2CN(CCc3c([nH]c4ccccc34)C(C(=O)OC)(c3cc4c(cc3OC)N(C=O)C3C(O)(C(=O)NNC(=O)C5CCCN5C(=O)CNC(=O)OCc5ccccc5)C(O)C5(CC)C=CCN6CCC43C65)C2)C1 (centres unmarked) [BX-CCXJ, Z-GP-NHNH-Vincristine]" metric="Body weight (g) Post-dose" unit_abbreviation=g recorded_measurement=24.2
molecule="CCC1(O)CC2CN(CCc3c([nH]c4ccccc34)C(C(=O)OC)(c3cc4c(cc3OC)N(C)C3C(O)(C(=O)NNC(=O)C5CCCN5C(=O)CNC(=O)OCc5ccccc5)C(O)C5(CC)C=CCN6CCC43C65)C2)C1 (centres unmarked) [BX-CCJ, Z-GP-NHNH-Vinblastine]" metric="Body weight (g) Post-dose" unit_abbreviation=g recorded_measurement=24.4
molecule="CC[C@]12C=CCN3CC[C@@]4(c5cc([C@@]6(C(=O)OC)C[C@@H]7C[C@@H](C(C)(F)F)CN(Cc8c6[nH]c6ccccc86)C7)c(OC)cc5N(C)[C@H]4[C@@](O)(C(=O)NN)[C@@H]1O)[C@@H]32 [JJ-CCFN, hydrazinolyzed vinflunine]" metric="Body weight (g) Post-dose" unit_abbreviation=g recorded_measurement=18.9
molecule="CC[C@]1(O)C[C@@H]2CN(CCc3c([nH]c4ccccc34)[C@@](C(=O)OC)(c3cc4c(cc3OC)N[C@H]3[C@@](O)(C(=O)NN)[C@H](O)[C@]5(CC)C=CCN6CC[C@]43[C@@H]65)C2)C1 [JJ-CCXJ, hydrazinolyzed vincristine]" metric="Body weight (g) Post-dose" unit_abbreviation=g recorded_measurement=17.5
molecule="CCC12C=CCN3CCC4(c5cc(C6(C(=O)OC)CC7CC(C(C)(F)F)CN(Cc8c6[nH]c6ccccc86)C7)c(OC)cc5N(C)C4C(O)(C(=O)NNC(=O)C4CCCN4C(=O)CNC(=O)OCc4ccccc4)C1O)C32 (centres unmarked) [BX-CCFN, Z-GP-NHNH-Vinflunine]" metric="Body weight (g) Post-dose" unit_abbreviation=g recorded_measurement=24.5
